Test: VP16 counterscreen qHTS for inhibitors of ROR gamma transcriptional activity
Settings: Drosophila S2 Gal4-VP16 UAS-luciferase, luminescence, 20 h; series mostly up to 53.6 µM
Out of some 310,000 compounds screened, about 11,000 (3.5%) were called active. Roughly 8% stayed inconclusive and do not appear here. Calls come from the whole dose curve; as a rule, active = well fitted inhibition curve with a large enough effect; inconclusive = small, poorly fitted or top-dose-only effect, or effect the other way; inactive = flat fitted curve, though single readings scatter. The full list was thinned out, with actives kept by preference.
Entry note: the call must match one of 1.0 (active), 0.0 (inactive)

>>> class_label("O=C(O)c1ccc(/C=N/NC(=S)NCc2ccccc2)cc1")
0.0
>>> class_label("COc1ccc(CCNC(=S)NC(=O)/C=C/c2ccc(C)cc2)cc1OC")
1.0
>>> class_label("COc1ccc(NC(=O)CN(C)C(=O)CNC(=O)C2CCCCC2)cc1")
0.0
>>> class_label("CC(=O)Nc1cccc(Nc2nc(-c3cccs3)nc3ccccc23)c1")
0.0
>>> class_label("CC1CN(C(=O)CCC(=O)NCCCN2CCC(Cc3ccccc3)CC2)c2cc(Cl)ccc2O1 (centres undefined)")
0.0
>>> class_label("C/C(=C\\C(=O)c1ccc(Br)cc1)N1CCCCC1")
0.0

Which result was noted for this molecule in the test: COc1ccc2c(C)c(CCC(=O)NC3CC3)c(=O)oc2c1C
0.0

Which result was noted for this molecule in the test: CC(C)CC(=O)NC(=S)NCc1ccccc1
1.0

Which result was noted for this molecule in the test: Cc1ccc2c(c1)N(CC(=O)N1CCOCC1)C(=O)CO2
0.0

---

Test: VP16 counterscreen qHTS for inhibitors of ROR gamma transcriptional activity; for activity, negative = inhibition: % is set by controls: 0 for no effect and ±100 for the full control effect
Details: Drosophila S2 Gal4-VP16 UAS-luciferase, luminescence, 20 h; series mostly up to 53.6 µM
The campaign covered roughly 310,000 compounds. About 11,000 (3.5%) were called active. About 8% were inconclusive and are not listed. The entries come from a sample that favours actives as a whole.
MEASURED PROPERTY: activity, negative = inhibition

Past entries and their recorded results:
>>> assay_value("CCOC(=O)CN/C=C(\\C#N)c1ccc(F)cc1")
"-4.69% [at 10 µM] (inactive)"
>>> assay_value("COCCN(CC(=O)Nc1ccccc1C)S(=O)(=O)c1ccc(S(=O)(=O)N2CCCC2)cc1")
"-1.46% [at 0.365 µM] (inactive)"
>>> assay_value("CSc1nc2ccccc2c(=O)n1Cc1ccc(F)cc1")
"7.17% [at 10 µM] (inactive)"
>>> assay_value("O=C(NNC(=S)NC1CCCCC1)c1ccccc1Cl")
"-4.51% [at 10 µM] (inactive)"
>>> assay_value("COc1ccc(-c2csc(Nc3ccccn3)n2)cc1")
"-8.73% [at 10 µM] (inactive)"

Kindly indicate its recorded activity, negative = inhibition. Item: Cn1cccc1-c1nc2ccccc2n1C
-16.5% [at 10 µM] (inactive)

Kindly indicate its recorded activity, negative = inhibition. Item: COc1ccc(/C=N/NC(=O)c2cccc(C(F)(F)F)c2)cc1
6.66% [at 10 µM] (inactive)

Kindly indicate its recorded activity, negative = inhibition. Item: O=C1OC2(CCCCC2)CC2=C1C1O[C@](c3ccsc3)(Cc3ccccc31)O2
-4.71% [at 10 µM] (inactive)

---

Experiment: VP16 counterscreen qHTS for inhibitors of ROR gamma transcriptional activity;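 note: Gal4-VP16 expression switched on by copper sulfate through the metallothionein promoter; nearly all actives have a fitted effect of over 50% in size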
Conditions: Drosophila S2 Gal4-VP16 UAS-luciferase, luminescence, 20 h; series mostly up to 53.6 µM
About 11,000 (3.5%) of roughly 310,000 compounds were called active. Not shown: some 8% with an inconclusive outcome. Calls follow the shape of the dose curve; as a rule, active = well fitted inhibition curve with a large enough effect; inconclusive = small, poorly fitted or top-dose-only effect, or effect the other way; inactive = flat fitted curve, though single readings scatter. The list comes from a sample in which actives are over-represented; it also holds close analogues and randomly drawn compounds.
Entry note: the call must match one of yes (active), no (inactive)

Worked cases, answers included:
>>> class_label("Cc1ccc(OC(=O)c2cc3ccccc3o2)cc1")
"no"
>>> class_label("CC1CCN(C(=O)/C(=C\\c2ccccc2)NC(=O)c2ccccc2)CC1")
"no"
>>> class_label("Cc1nc2c(c(=O)n1Cc1ccco1)c1nc3ccccc3nc1n2Cc1ccccc1")
"no"
>>> class_label("O=C(c1ccccc1)N1CCC(CC2CC(c3ccc(Cl)cc3)=NO2)(C(=O)NCC2CCCCC2)CC1 (configuration not stated)")
"no"
>>> class_label("Cc1ccccc1NC(=O)CSc1ccc2nnc(-c3ccccn3)n2n1")
"no"
>>> class_label("O=C1c2ccccc2C(=O)N1CCOc1ccc(F)cc1")
"no"

Which result was noted for this compound in the test: CCCn1c(C(C)Nc2nc(-c3ccc(C)cc3)cs2)nc2cc(Cl)c(N3CCCCC3)cc21 (configuration not stated)
no

Which result was noted for this compound in the test: Cc1cc(C)c(NC(=O)CN2CCCCCC2)c(C)c1
no

---

Assay: VP16 counterscreen qHTS for inhibitors of ROR gamma transcriptional activity;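 note: Gal4-VP16 expression switched on by copper sulfate through the metallothionein promoter; nearly all actives have a fitted effect of over 50% in size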
Conditions: Drosophila S2 Gal4-VP16 UAS-luciferase, luminescence, 20 h; series mostly up to 53.6 µM
Hit rate of the full screen: of about 310,000 compounds, about 11,000 (3.5%) were called active. Inconclusive results (about 8%) are left out. The call rests on the fitted dose curve; in most records, active means well fitted inhibition curve with a large enough effect; inconclusive means small, poorly fitted or top-dose-only effect, or effect the other way; inactive means flat fitted curve, though single readings scatter. The sample holds actives, similar compounds and a random draw of the others, so the mix is not that of the screen.
Entry note: the call must match one of active, inactive

>>> class_label("CCCOc1ccc(-c2nc(N)n[nH]2)cc1")
"inactive"

Which result was noted for this molecule in the test: Cc1cccc(OCC(=O)NCC(=O)N/N=C/c2ccc(N(C)C)cc2)c1
inactive

Which result was noted for this molecule in the test: CCc1ccc(Oc2coc3cc(O)ccc3c2=O)cc1
inactive

Which result was noted for this molecule in the test: Cc1ccccc1-n1cc(CNC(=O)C2CCC(=O)N(C3CC3)C2)cn1 (configuration not stated)
inactive

Which result was noted for this molecule in the test: Cc1ccc(-n2nc3cc(Cl)c(NC(=O)c4ccco4)cc3n2)cc1
inactive

Which result was noted for this molecule in the test: COc1ccccc1/C=C/C(=O)NC1CC2CCC1C2 (configuration not stated)
inactive

Which result was noted for this molecule in the test: CCNC(=S)N1CCN(C(=O)c2ccco2)CC1
inactive

---

Test: VP16 counterscreen qHTS for inhibitors of ROR gamma transcriptional activity;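 note: Gal4-VP16 expression switched on by copper sulfate through the metallothionein promoter; nearly all actives have a fitted effect of over 50% in size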
Conditions: Drosophila S2 Gal4-VP16 UAS-luciferase, luminescence, 20 h; series mostly up to 53.6 µM
In all, about 310,000 compounds went through this assay and about 11,000 (3.5%) were called active. About 8% were inconclusive and are not listed. Calls follow the shape of the dose curve; as a rule, active = well fitted inhibition curve with a large enough effect; inconclusive = small, poorly fitted or top-dose-only effect, or effect the other way; inactive = flat fitted curve, though single readings scatter. Only a selection was taken, and actives are over-represented in it overall.
Entry note: the call must match one of active, inactive

Worked cases, answers included:
>>> class_label("COc1cc(C(=O)NC2CCN(Cc3ccccc3)CC2)cc(Cl)c1OC(C)C")
"inactive"
>>> class_label("Cc1ccc(/C=N/NC(=S)NC2CCCCC2)o1")
"active"
>>> class_label("COc1cc(OC)cc(C(=O)NCCSCc2ccc(Cl)cc2)c1")
"inactive"
>>> class_label("S=C(NCCc1ccccc1)N1CCCCC1")
"inactive"
>>> class_label("CCc1ccc(NC2Nc3cc(C)nn3S2)cc1 (stereo unspecified)")
"active"
>>> class_label("Cc1nn(C)cc1C(=O)Nc1ccccc1Br")
"inactive"

Which result was noted for this compound in the test: N#Cc1ccccc1S(=O)(=O)N1CCN(C(=O)c2cc(-c3ccccc3)nn2-c2ccccc2)CC1
inactive

Which result was noted for this compound in the test: COc1cc(C(=O)NCc2nnc(SCC(=O)Nc3nc4ccc(C)cc4s3)o2)cc(OC)c1OC
active

Which result was noted for this compound in the test: O=C(CC(=O)N/N=C\c1ccc(F)cc1)NCCc1ccccc1
inactive

Which result was noted for this compound in the test: Cc1ccc(Oc2ccc(N)cc2)cc1
inactive

---

Assay: VP16 counterscreen qHTS for inhibitors of ROR gamma transcriptional activity;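 note: Gal4-VP16 expression switched on by copper sulfate through the metallothionein promoter; nearly all actives have a fitted effect of over 50% in size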
Details: Drosophila S2 Gal4-VP16 UAS-luciferase, luminescence, 20 h; series mostly up to 53.6 µM
About 11,000 (3.5%) of roughly 310,000 compounds were called active. Inconclusive results (about 8%) are left out. Calls come from the whole dose curve; as a rule, active = well fitted inhibition curve with a large enough effect; inconclusive = small, poorly fitted or top-dose-only effect, or effect the other way; inactive = flat fitted curve, though single readings scatter. Many of the other results were omitted from the sample, so actives are more common in it than they were.
Entry note: the call must match one of active, inactive

>>> class_label("CNC(=O)C1CCN(S(=O)(=O)c2c(C)noc2/C=C/c2cccc(C)c2)CC1")
"inactive"
>>> class_label("CC(C)(C)NC(=O)NC(=O)COC(=O)C1c2ccccc2Oc2ccccc21")
"inactive"
>>> class_label("Cc1ccc(/C=C2/SC(=S)N(CCC(=O)NCCCN3CCOCC3)C2=O)cc1")
"inactive"
>>> class_label("COC(=O)c1cccnc1NC(=S)NC(C)C")
"active"

Which result was noted for this compound in the test: CCOC(=O)c1ccc(NC(=O)Cn2cnc3cc(C)c(C)cc32)cc1
active

Which result was noted for this compound in the test: COc1ccc(OC)c(C(C)NC(=S)Nc2ccc(S(=O)(=O)Nc3ncccn3)cc2)c1 (stereo unspecified)
inactive

Which result was noted for this compound in the test: CCCCc1nc2cc(C(=O)NCCc3cnn(C)c3)ccc2o1
inactive

Which result was noted for this compound in the test: Cc1c(Cl)c([N+](=O)[O-])nn1CCCC(=O)Nc1cc(Cl)ccc1Cl
inactive

Which result was noted for this compound in the test: CCCc1nnc(SCC(=O)Nc2ccc(C(=O)OCC)cc2)o1
inactive

Which result was noted for this compound in the test: O=C(N/N=C/c1ccc2c(c1)OCO2)c1ccc(Cn2cc([N+](=O)[O-])cn2)o1
inactive

Which result was noted for this compound in the test: COc1cc(S(=O)(=O)Nc2ncn[nH]2)ccc1Cl
inactive

Attribution: PubChem BioAssay AID2546
